studyTarget: T1, recombinant human EGFR extracellular domain with 6xHis (human, UniProt P00533 25-645)
T1 construct: In-house produced; also called 6xHis EGFR ECD; soluble human EGFR ECD; not shown: 6xHis tag
experimentNotes: SPR competition, competitor 1261
Here, each record is paired with measured % inhibition data.
Please respond with the number in % and leave the unit unwritten.

Recorded results for 2 binders are shown here.
Requested read-out: % inhibition. Entry: antibody 1257 (antibody, human IgG1, kappa, V domains shown, Chimeric IgG1 kappa) VH: EVQLQQSGPELVKPGASVKIPCKTSGYTFTDYNMAWVKQSHGKSLEWIGDIIPNNGGAIYNQKFKGKATLTVDKSSSTASMELRSLTSEDTAVYFCARKNIYYRYDGAGALDYWGQGTSVTVSS VL: QIVLTQSPAIMSASPGEKVTMTCSASSSVSYIYWYQQKPGSSPRLLIYDASNLASGVPVRFSGSGSGTSYSLTISRMEAEDAATYYCQQWSSYPITFGSGTKLEIKR 103

Dear colleague, I am looking for the recorded % inhibition of the following binder: antibody 1344 (antibody, human IgG1, kappa, V domains shown, Chimeric IgG1 kappa) VH: QVQLKESGPGLVAPSQSLSITCTVSGFSLTIYGVHWVRQPPGKGLEWLGVIWAGGNTNYNSALMSRLSISKDNSKSQVFLKMNSLQTDDTAMYFCARGYGYNLDYWGQGTTLTVSS VL: DIQMTQTTSSLSASLGDRVTISCSASQGISNYLNWYQQKPDGTVKLLIYYTSSLHSGVPSRFSGSGSGTDYSLTISNLEPEDIATYYCQQYSKLPYTFGGGTKLEIKR 71

Could you now look at the following binder, please?
Recorded % inhibition for antibody 1024 (antibody, human IgG1, kappa, V domains shown, Chimeric IgG1 kappa) VH: QVQLQQPGAELVEPGGSVKLSCKASGYTFTSHWMHWVKQRPGQGLEWIGEINPSSGRNNYNEKFKSKATLTVDKSSSTAYMQFSSLTSEDSAVYYCVRYYGYDEAMDYWGQGTSVTVSS VL: DIVMTQAAFSNPVTLGTSASISCRSSKSLLHSNGITYLYWYLQKPGQSPQLLIYQMSNLASGVPDRFSSSGSGTDFTLRISRVEAEDVGVYYCAQNLELPYTFGGGTKLEIKR , please? -27
